These data points were gathered from paper PMC10776578.

B1: unnamed (parent)
chain 1: MSLLNCENSCGSSQSESDCCVAMASSCSAVTKDDSVGGTASTGNLSSSFMEEIQGYDVEFDPPLESKYECPICLMALREAVQTPCGHRFCKACIIKSIRDAGHKCPVDNEILLENQLFPDNFAKREILSLMVKCPNEGCLHKMELRHLEDHQAHCEFALMDCPQCQRPFQKFHINIHILKDCPRRQVSCDNCAASMAFEDKEIHDQNCPLANVICEYCNTILIREQMPNHYDLDCPTAPIPCTFSTFGCHEKMQRNHLARHLQENTQSHMRMLAQAVHSLSVIPDSGYISEVRNFQETIHQLEGRLVRQDHQIRELTAKMETQSMYVSELKRTIRTLEDKVAEIEAQQCNGIYIWKIGNFGMHLKCQEEEKPVVIHSPGFYTGKPGYKLCMRLHLQLPTAQRCANYISLFVHTMQGEYDSHLPWPFQGTIRLTILDQSEAPVRQNHEEIMDAKPELLAFQRPTIPRNPKGFGYVTFMHLEALRQRTFIKDDTLLVRCEVSTRFDMGSLRREGFQPRSTDAGV
chain 2: MEHDLERGPPGPRRPPRGPPLSSSLGLALLLLLLALLFWLYIVMSDWTGGALLVLYSFALMLIIIILIIFIFRRDLLCPLGALCILLLMITLLLIALWNLHGQALFLGIVLFIFGCLLVLGIWIYLLEMLWRLGATIWQLLAFFLAFFLDLILLIIALYLQQNWWTLLVDLLWLLLFLAILIWMYYHGQRHSDEHHHDDSLPHPQQATDDSGHESDSNSNEGRHHLLVSGAGDGPPLCSQNLGAPGGGPDNGPQDPDNTDDNGPQDPDNTDDNGPHDPLPQDPDNTDDNGPQDPDNTDDNGPHDPLPHSPSDSAGNDGGPPQLTEEVENKGGDQGPPLMTDGGGGHSHDSGHGGGDPHLPTLLLGSSGSGGDDDDPHGPVQLSYYD

variants of: B1; test: co-immunoprecipitation, quantified immunoblot; details: with partner chain of the complex shown; HEK293 cells; parent: 1.3e+07; read off a plot
Assay metric: response (relative intensity)
Write no unit; give the number alone.

Record excerpt, results attached:
>>> test_value("chain 1 F471A")
"6e+06"
>>> test_value("chain 1 R392A")
"2.5e+06"
>>> test_value("chain 1 K469A")
"1.8e+07"

The record that follows has no response (relative intensity) shown yet.
# input Given the variant chain 1 Y473A , what is its reported response (relative intensity)?
# output 5.5e+06
